# Experimental system: Antibody 178-08_His 501.V2 (27079) (SARS-CoV-2, UniProt P0DTC2 14-685)
# Run description: FACS
pIC50: −log10 of the molar value.
Metric: pIC50

1) 7-14 (VHH) VHH: EVQLVESGGGLVQPGGSLRLSCAASGSTFSINAMGWFRQAPGKEREFVAGISRGGTTNYADSVKGRFTISADNSKNTAYLQMNSLKPEDTAVYYCAADGVPEYSDYASGPVWGQGTLVTVSS: 8.35
2) 5A-3 (VHH) VHH: EVQLVESGGGLVQPGGSLRLSCAASGSIFSIDVMGWFRQAPGKEREFVAGISWSGDSTLYADSVKGRFTISADNSKNTAYLQMNSLKPEDTAVYYCAAFDGYTGSDWGQGTLVTVSS: 9.23
3) 3-31 (VHH) VHH: EVQLVESGGGLVQPGGSLRLSCAASGSTFSINAMGWFRQAPGKEREFVAGITSSGGYTNYADSVKGRFTISADNSKNTAYLQMNSLKPEDTAVYYCAADGVPEYSDYASGPVWGQGTLVTVSS: 6.49
4) 7-37 (VHH) VHH: EVQLVESGGGLVQPGGSLRLSCAASGSTLSINAMGWFRQAPGKEREFVAGITRSGSVTNYADSVKGRFTISADNSKNTAYLQMNSLKPEDTAVYYCAADGVPEYSDYASGPVWGQGTLVTVSS: 8.68
5) 7-26 (VHH) VHH: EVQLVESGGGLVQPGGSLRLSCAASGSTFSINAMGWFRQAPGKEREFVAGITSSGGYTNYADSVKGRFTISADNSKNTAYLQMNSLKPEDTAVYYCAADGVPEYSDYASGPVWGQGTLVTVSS: 9.01

Values from patent US20230265217A1
